# reported melting point; entries follow

| compound | metric.name | result |
| --- | --- | --- |
| CC(C)(O)Cn1cnc2c(N)nc3ccc(Br)cc3c21 | melting point | 197 to 198 °C |
| Nc1cccc(NC(=S)Nc2ccc(Cl)cc2)c1 | melting point | 132 to 134 °C |
| COC(=O)COc1ccc(C(=O)C(C)C)cc1 | melting point | 45 to 46 °C |
| O=S(=O)(c1ccccc1)C1CCCC2(C1)OCCO2 (stereo unspecified) | melting point | 93 to 95 °C |
| CCc1cc(NC(=O)C(CSC(C)=O)Cc2ccccc2)cc(C(=O)O)c1 (stereo unspecified) | melting point | 175 to 177 °C |

Please turn your attention to the following entry.
melting point reading for `Cc1cccc2c1C(=O)C1(CC1)S2` : 128 °C
